FYI, the data here is from the supplement of paper PMC7411054.

- System: A549-TP53BP1-CLTA
- test_protocol: phenotypically active (imaging signature differs from DMSO and reproducible) at any of 0.3-9 uM (binary (1 = active, 0 = inactive)); higher = active
- measurement_context: treatment time: 24 h
Field 'call' accepts active, inactive

Would you please look over these solved cases?
[
  {
    "compound": "CCn1c(=O)n([C@H]2CCCN(c3nccc(-c4cc5ccccc5o4)n3)C2)c2ccccc21",
    "group": "active"
  },
  {
    "compound": "O=[N+]([O-])c1c(Nc2cc(F)cc(Cl)c2)ccc2nonc12",
    "group": "inactive"
  },
  {
    "compound": "CC1(C(=O)O)CCC2(C)CCC3(C)C(=CC(=O)C4C5(C)CCC(OC6OC(C(=O)O)C(O)C(O)C6OC6OC(C(=O)O)C(O)C(O)C6O)C(C)(C)C5CCC43C)C2C1 (stereo not given)",
    "group": "inactive"
  },
  {
    "compound": "CCCCOc1cc(C(=O)OCCN(CC)CC)ccc1N",
    "group": "inactive"
  }
]

Please look at the following compound next.
Incoming: What call does the record list for NC(=O)C(c1ccccc1)(c1ccc(F)cc1)c1ccc(F)cc1 ?
Outgoing: inactive

###

- Test system: HepG2-TUBA1B-RELA
- test_protocol: phenotypically active (imaging signature differs from DMSO and reproducible) at any of 0.3-9 uM (binary (1 = active, 0 = inactive)); higher = active
- measurement_context: treatment time: 24 h
Where a name gives a salt, the structure may show the parent alone.
experimental_endpoint: phenotypically active
# answer = number (no unit)

[
  {
    "molecule": "Cc1cnc(C(=O)NCCc2ccc(S(=O)(=O)NC(=O)NC3CCCCC3)cc2)cn1 [glipizide]",
    "phenotypically active": 0
  },
  {
    "molecule": "NS(=O)(=O)c1cc(C2(O)NC(=O)c3ccccc32)ccc1Cl (stereo not drawn)",
    "phenotypically active": 0
  },
  {
    "molecule": "COc1cc(N2CCC(N)CC2)ccc1Nc1ncc(Cl)c(-c2c[nH]c3ccccc23)n1",
    "phenotypically active": 1
  },
  {
    "molecule": "CC(C)OC(=O)C(C)(C)Oc1ccc(C(=O)c2ccc(Cl)cc2)cc1 [Fenofibrate]",
    "phenotypically active": 0
  },
  {
    "molecule": "Cn1cc(CCn2cnc(-c3cnn(C)c3)c2-c2ccc(C#N)cc2)cn1",
    "phenotypically active": 0
  }
]

Incoming: I would be grateful if you could share the reported phenotypically active for CCCCc1c(O)n(-c2ccccc2)n(-c2ccccc2)c1=O .
Outgoing: 0

Incoming: Lookup CC(C)(C)NC[C@H](O)COc1cccc2c1CCCC2=O
Outgoing: 0

Incoming: Lookup CCCC1(CCC)CCC2(CCN(CCCN(CC)CC)C2)CC1 [Atiprimod dihydrochloride]
Outgoing: 1

Incoming: Lookup COc1cc2c(NC3CCN(C)CC3)nc(N3CCCN(C)CC3)nc2cc1OCCCN(C)C
Outgoing: 0

Incoming: Lookup CN[C@H]1CC[C@@H](c2ccc(Cl)c(Cl)c2)c2ccccc21
Outgoing: 1

Incoming: Lookup C[C@H]1[C@H](C)CC[C@]2(C(=O)O[C@@H]3O[C@H](CO[C@@H]4O[C@H](CO)[C@@H](O[C@@H]5O[C@@H](C)[C@H](O)[C@@H](O)[C@H]5O)[C@H](O)[C@H]4O)[C@@H](O)[C@H](O)[C@H]3O)CC[C@]3(C)C(=CC[C@@H]4[C@@]5(C)C[C@@H](O)[C@H](O)[C@@](C)(CO)[C@@H]5CC[C@]43C)[C@H]12 [Asiaticoside]
Outgoing: 0

Incoming: Lookup COC(=O)C1=CO[C@@H](C)[C@H]2CN3CCc4c([nH]c5ccccc45)[C@@H]3C[C@H]12 [Ajmalicine hydrochloride]
Outgoing: 0

Incoming: Lookup NS(=O)(=O)c1cc2c(cc1Cl)N=C(CSCc1ccccc1)NS2(=O)=O [benzthiazide]
Outgoing: 0

Incoming: Lookup O=C([C@@H](Cc1cccc(C(F)(F)F)c1)NS(=O)(=O)c1cc(F)c2c(c1)CCNC2)N1CCCC1 [(R)-PFI 2 hydrochloride]
Outgoing: 0

Incoming: Lookup COc1cc(N2CCOCC2)ccc1Nc1ncc(Cl)c(Nc2ccccc2NS(C)(=O)=O)n1
Outgoing: 1

###

- Tested on: WPMY1-TUBA1B-RELA
- test_protocol: phenotypically active (imaging signature differs from DMSO and reproducible) at any of 0.3-9 uM (binary (1 = active, 0 = inactive)); higher = active
- measurement_context: treatment time: 24 h
Field 'call' accepts yes (1) (active), no (0) (inactive)

[
  {
    "compound": "CCCCCCCCCN1C[C@H](O)[C@@H](O)[C@H](O)[C@H]1CO [N-Nonyldeoxynojirimycin]",
    "group": "no (0)"
  }
]

Incoming: What call does the record list for Cc1cc2c(s1)Nc1ccccc1N=C2N1CCN(C)CC1 [Olanzapine] ?
Outgoing: no (0)

Incoming: Lookup Cc1c(OCC(F)(F)F)ccnc1CS(=O)c1nc2ccccc2[nH]1 (stereo not drawn) [lansoprazole]
Outgoing: no (0)

Incoming: Lookup CCOC(=O)c1c2c3c(cccc3[nH]c1=O)C(=O)c1ccccc1-2
Outgoing: no (0)

###

- Tested on: WPMY1-TUBA1B-RELA
- test_protocol: phenotypically active (imaging signature differs from DMSO and reproducible) at any of 0.3-9 uM (binary (1 = active, 0 = inactive)); higher = active
- measurement_context: treatment time: 24 h
Where a name gives a salt, the structure may show the parent alone.
experimental_endpoint: phenotypically active
# answer = number (no unit)

[
  {
    "compound": "CN1CCN2c3ncccc3Cc3ccccc3C2C1 (centres undefined)",
    "phenotypically active": 0
  },
  {
    "compound": "CCc1nn(CCCN2CCN(c3cccc(Cl)c3)CC2)c(=O)n1CCOc1ccccc1",
    "phenotypically active": 0
  },
  {
    "compound": "O=S(=O)(c1cccc2c(O)nccc12)N1CCCNCC1 [HA 1100 hydrochloride]",
    "phenotypically active": 1
  },
  {
    "compound": "CC1CCC(C(C)C)C(O)C1 (centres undefined)",
    "phenotypically active": 0
  },
  {
    "compound": "Cc1[nH]c2ccccc2c1CCNC(=O)c1ccccc1F",
    "phenotypically active": 0
  }
]

Incoming: I would be grateful if you could share the reported phenotypically active for COc1ccc(-n2c(SCCCN3C(=O)c4cccc5cccc(c45)C3=O)nnc2-c2ccncc2)cc1 .
Outgoing: 0

Incoming: Lookup CCN1CCN(C(c2cccnc2)c2cc(Cl)c3cccnc3c2O)CC1 (centres undefined)
Outgoing: 0

Incoming: Lookup CC(C)n1c(/C=C/[C@@H](O)C[C@@H](O)CC(=O)O)c(-c2ccc(F)cc2)c2ccccc21.CC(C)n1c(/C=C/[C@H](O)C[C@H](O)CC(=O)O)c(-c2ccc(F)cc2)c2ccccc21 [Fluvastatin sodium]
Outgoing: 1

Incoming: Lookup C=CCc1ccc(O)c(-c2ccc(O)c(CC=C)c2)c1
Outgoing: 0

###

- System: HepG2-CANX-COX4
- test_protocol: lowest phenotypically active concentration; higher = less potent
- measurement_context: treatment time: 24 h
Where a name gives a salt, the structure may show the parent alone.
experimental_endpoint: lowest phenotypically active concentration

[
  {
    "molecule": "CC1CNCCN1S(=O)(=O)c1cccc2cnccc12 (configuration not stated) [H-7 dihydrochloride]",
    "result": "9 µM"
  },
  {
    "molecule": "Cc1cc(Nc2nc(N[C@@H](C)c3ncc(F)cn3)ncc2Cl)n[nH]1",
    "result": "3 µM"
  },
  {
    "molecule": "CCN1CCN(c2cc(-c3ccc(F)cc3)c3c(n2)CCCCCC3)CC1",
    "result": "9 µM"
  }
]

Pending molecule:
Incoming: I would be grateful if you could share the reported lowest phenotypically active concentration for C=C1C(=O)O[C@@H]2C=C(C)CCC=C(C)CC[C@@H]12 [Costunolide] .
Outgoing: 9 µM

###

- Tested on: HepG2-TUBA1B-RELA
- test_protocol: phenotypically active (imaging signature differs from DMSO and reproducible) at any of 0.3-9 uM (binary (1 = active, 0 = inactive)); higher = active
- measurement_context: treatment time: 24 h
Structures can show the parent of a compound that is named as a salt.
experimental_endpoint: phenotypically active

[
  {
    "compound": "Nc1c2c(nc3ccccc13)CCCC2 [tacrine]",
    "experimental_endpoint": "phenotypically active",
    "result": "0 (inactive)"
  },
  {
    "compound": "Nc1nnc(-c2cccc(Cl)c2Cl)c(N)n1 [lamotrigine]",
    "experimental_endpoint": "phenotypically active",
    "result": "0 (inactive)"
  },
  {
    "compound": "CN1C(=O)CC(c2ccccc2)C1=O (centres undefined) [phensuximide]",
    "experimental_endpoint": "phenotypically active",
    "result": "0 (inactive)"
  },
  {
    "compound": "O=c1cc(-c2ccccc2)oc2c(O)c(O)ccc12 [7,8-Dihydroxyflavone]",
    "experimental_endpoint": "phenotypically active",
    "result": "0 (inactive)"
  },
  {
    "compound": "CCc1c(C(=O)Nc2cc(S(=O)(=O)N(CC)CC)ccc2O)[nH]c(C)c1C(C)=O",
    "experimental_endpoint": "phenotypically active",
    "result": "0 (inactive)"
  }
]

Incoming: I would be grateful if you could share the reported phenotypically active for Nc1ncnc2c1ncn2[C@@H]1O[C@H](CO)C[C@H]1O [Cordycepin] .
Outgoing: 0 (inactive)

Incoming: Lookup NC12CC3CC(CC(C3)C1)C2 [amantadine]
Outgoing: 0 (inactive)

Incoming: Lookup CCSc1ccc2c(c1)N(CCCN1CCN(C)CC1)c1ccccc1S2 [thiethylperazine]
Outgoing: 1 (active)

Incoming: Lookup COc1ccc(C2=N[C@H](c3ccc(Cl)cc3)[C@H](c3ccc(Cl)cc3)N2C(=O)N2CCNC(=O)C2)c(OC(C)C)c1 [Nutlin-3]
Outgoing: 0 (inactive)

Incoming: Lookup Nn1nnc2ccccc21
Outgoing: 0 (inactive)

Incoming: Lookup CCCCCCCCCN1C[C@H](O)[C@@H](O)[C@H](O)[C@H]1CO [N-Nonyldeoxynojirimycin]
Outgoing: 0 (inactive)

Incoming: Lookup C=C[C@H]1[C@H](O[C@@H]2O[C@H](CO)[C@@H](O)[C@H](O)[C@H]2O)OC=C2C(=O)NCC[C@H]21 [Bakankosine]
Outgoing: 0 (inactive)

Incoming: Lookup CN(C)C1CCN(C(=O)c2ccc(NC(=O)Nc3ccc(-c4nc(N5CCOCC5)nc(N5CCOCC5)n4)cc3)cc2)CC1
Outgoing: 1 (active)

Incoming: Lookup OCCn1cc(-c2cnc3nnn(Cc4ccc5ncccc5c4)c3n2)cn1
Outgoing: 0 (inactive)

Incoming: Lookup NC(=O)Nc1cc(-c2cccc(F)c2)sc1C(=O)N[C@H]1CCCNC1 [AZD 7762 hydrochloride]
Outgoing: 1 (active)

Incoming: Lookup CN1C(=O)/C(=C2/Nc3ccccc3/C2=N/O)c2ccc(Br)cc21
Outgoing: 0 (inactive)

Incoming: Lookup CO[C@@]12[C@H](COC(N)=O)C3=C(C(=O)C(C)=C(N)C3=O)N1C[C@@H]1N[C@@H]12 [mitomycin]
Outgoing: 0 (inactive)

Incoming: Lookup O=C(O)c1cc(=O)c(O)c(C(=O)O)o1 [Meconic acid]
Outgoing: 0 (inactive)

Incoming: Lookup O=C(O)c1ccc(N2N=C(Cc3ccccc3)/C(=C/c3ccc(-c4ccccc4F)o3)C2=O)cc1
Outgoing: 0 (inactive)
